From: PubChem BioAssay (NCATS)

ASSAY_INFO: Primary fluorescence-based thiol-reactive (MSTI) qHTS assay for identification of artifact compounds. (AID 1845221);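 note: thiol-reactive compounds lower the probe fluorescence signal; nearly all actives have a fitted effect of over 65% in size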
STUDY_CONDITIONS: MSTI thiol-reactivity probe, 1 h; series mostly up to 53.8 µM
Results filed as inconclusive are left out. Calls of active or inactive are those of the source. Calls come from the whole dose curve; as a rule, active = well fitted inhibition curve with a large enough effect; inconclusive = small, poorly fitted or top-dose-only effect; inactive = no such curve, though single readings can be large or run the other way.
Choose one outcome from this list and give only that: active, inactive

- COMPOUND: "C[C@@H]1CCC2C(C)(C)[C@H](O)[C@H](O)C[C@]2(C)[C@@]12Cc1c(O)cc3c(c1O2)CN(CCCC(=O)O)C3=O (stereo not given in full)"
  GROUP: "inactive"
- COMPOUND: "Cc1ccc(C)c(S(=O)(=O)n2cnc3ccccc32)c1"
  GROUP: "inactive"
- COMPOUND: "C[C@@H]1[C@H](O)[C@@H]2OC(=O)C3=C2[C@H](CCC3)[C@@]12C[C@@H](c1ccoc1)OC2=O"
  GROUP: "inactive"
- COMPOUND: "Cc1c(F)cc(C(=O)NC2CC2)cc1-c1ccc(C(=O)NCC(C)(C)C)cn1"
  GROUP: "inactive"

Could you now consider this next compound?
Hi, do you know how CCCSc1nc(NC2CC2c2ccc(F)c(F)c2)c2nnn(C3CC(OCCO)C(O)C3O)c2n1 (stereo not given) came out in this test?
inactive

---

Tested on: JEG-3
ASSAY_INFO: Primary qHTS to identify gynecologic anti-cancer compounds using libraries of approved drugs and bioactive compounds (AID 1345084); note: nearly all actives have a fitted effect of over 55% in size
STUDY_CONDITIONS: Gynecologic cancer cell panel viability, ATPlite luminescence, 48 h; series mostly up to 57.5 µM
Results filed as inconclusive are left out. The source made the active and inactive calls. Calls follow the shape of the dose curve; as a rule, active = well fitted cell-killing curve with a large enough effect; inconclusive = small, poorly fitted or top-dose-only effect, or effect the other way; inactive = flat fitted curve, though single readings scatter. Where a SMILES comes first, the peptide text is derived from it.
QUANTITY_MEASURED: activity change, negative = cytotoxicity

# example entries with known answers
- COMPOUND: "NC(=O)NCCCC(NC(=O)Cc1ccccc1)C(=O)O (stereo not drawn)"
  activity change, negative = cytotoxicity: "inactive"
- COMPOUND: "CC1=C2C[C@@]3(C)[C@@H](CCC[C@@H]3C)C[C@@]2(O)OC1=O"
  activity change, negative = cytotoxicity: "inactive"
- COMPOUND: "CC(C)C1NC(=O)CNC(=O)C2CCCN2C(=O)C(Cc2c[nH]c3ccccc23)NC(=O)CNC(=O)C(Cc2ccc(O)cc2)NC(=O)CNC1=O (stereo not drawn) (cyclo(GVGYGWP); configuration not given here)"
  activity change, negative = cytotoxicity: "inactive"
- COMPOUND: "Nc1ncnc2c1ncn2[C@H]1O[C@@H](C(=O)N2CCN(CC(=O)Nc3cccc4c3CNC4=O)CC2)[C@H](O)[C@@H]1O"
  activity change, negative = cytotoxicity: "inactive"
- COMPOUND: "CC1C2=CC(=O)OC2(O)CC2C1C(OC(=O)c1ccccc1)C(OC(=O)c1ccccc1)C1(O)C2(C)CCC(O)C1(C)C(=O)O (stereo not drawn)"
  activity change, negative = cytotoxicity: "inactive"

Query activity change, negative = cytotoxicity for COc1cc(/C=C/C(=O)O[C@@H]2O[C@H](CO)[C@@H](O)[C@H](O)[C@H]2O)ccc1O
inactive

Report measured activity change, negative = cytotoxicity; entry is CC1=C2CC(=O)C(C)CC/C=C(\C)CC2(O)OC1=O (stereo not drawn)
inactive

Specify reported activity change, negative = cytotoxicity for the compound shown: COC(=O)C1(C)CCCC2(C)c3ccc(C(C)C)cc3C(O)C(O)C12 (stereo not drawn)
inactive
